# runDescription: AP1 Signaling Pathway (AID 357);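 note: ME-180 reporter cells stimulated with EGF at its EC50 level; % is set by controls: 0 for no effect and ±100 for the full control effect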
# conditionLabel: ME-180 (cervical carcinoma) AP-1-bla reporter, EGF-induced, beta-lactamase ratio, 5 h; at 7.69 µM (top of the series) unless noted
Results filed as inconclusive are left out. Activity calls are given as the source filed them. Calls come from the whole dose curve; as a rule, active = well fitted curve in either direction with a large enough effect (not every such curve was filed as active); inconclusive = small, poorly fitted or top-dose-only effect, or another doubt; inactive = flat fitted curve, though single readings scatter.
measure: activity change, negative = inhibition

INSERT INTO results (smilesrepr, measure, testresult) VALUES
  ('C[N+]1(C)CCC[C@@H](OC(=O)C(O)(c2ccccc2)c2ccccc2)C1', 'activity change, negative = inhibition', '3.62% [at 17.2 µM] (inactive)'),
  ('Cc1noc(C)c1C(=O)N1CCC2(CCCN(Cc3ccccc3)C2)CC1', 'activity change, negative = inhibition', '3.01% (inactive)'),
  ('Cc1cnc(CNc2ncncc2-c2ccc(N(C)C)cc2)cn1', 'activity change, negative = inhibition', '3.22% (inactive)');

Look at each compound and report its activity change, negative = inhibition.
1. CN(C)c1ncc2nc(-c3cccs3)c(=O)n(C)c2n1
2. COc1ccccc1CCn1c(=O)c(-c2cccs2)nc2cncnc21
3. CS(=O)(=O)N1CCC2(CC1)CN(C(=O)Nc1cccc(F)c1)C2
4. COCC(=O)N1CCC2(CCN(Cc3nccs3)CC2)CC1

A)
1.79% (inactive)
-29.2% (inactive)
0.393% (inactive)
0.0953% (inactive)

Look at each compound and report its activity change, negative = inhibition.
1. COCCn1c(=O)c(-c2ccc(F)cc2)nc2cncnc21
2. CS(=O)(=O)Nc1cccc(-c2nccc(Nc3ccc(F)cc3)n2)c1
3. COc1ccc(C(=O)N2CCC[C@@]3(CCN(Cc4ccccc4)C3)C2)cc1
4. O=S(=O)(c1ccccc1)N1CCC2(CCCN(Cc3ccccc3)C2)CC1
5. COc1ccc(C(=O)N2CCC[C@@]3(CCN(C(=O)Nc4cccc(C#N)c4)C3)C2)cc1
6. O=C(Oc1ccccc1)N1CCC2(CCCN(c3ccccn3)C2)CC1
7. N#Cc1cccc(-c2nc(NCc3ccccc3)c3ccccc3n2)c1
8. O=C(Nc1ccccc1)N1CCCC2(CCN(C(=O)c3cnccn3)CC2)C1

A)
1: -7.99% (inactive); 2: -12.6% (inactive); 3: 13% (inactive); 4: 10.9% (inactive); 5: -11.5% (inactive); 6: -14.7% (inactive); 7: -14.6% (inactive); 8: 4.4% (inactive)

Look at each compound and report its activity change, negative = inhibition.
1. Cn1c(=O)c(-c2cc(F)cc(F)c2)nc2cnc(Oc3cccc(Cl)c3)nc21
2. CC(C)CN1CCCC2(CCN(C(=O)c3cc(C(F)(F)F)cc(C(F)(F)F)c3)CC2)C1

A)
-16% (inactive)
-4.78% (inactive)

* * *

# runDescription: qHTS Assay for Lipid Storage Modulators (AID 1519)
# conditionLabel: Drosophila S3 cells, BODIPY lipid droplet/cell ratio, laser cytometry; measured here: lipid channel max response; cells loaded with oleic acid
Inconclusive results are not listed.
Please enter YES where max response is greater than or equal to 20%, and NO where it is lower.

INSERT INTO assay_data (smilesrepr, labelclass) VALUES
  ('COc1ccc(NC(=O)N2CC3(CCN(C(=O)c4csnn4)CC3)C2)cc1', 'NO'),
  ('CS(=O)(=O)N1CCC2(CCCN(C(c3ccccc3)c3ccccc3)C2)CC1', 'NO'),
  ('COc1cccc(-c2ccc3ncnc(NCc4ccccc4OC)c3c2)c1', 'NO');

Q) Dear colleague, could you confirm whether CN[C@@H](CC(C)C)C(=O)N[C@@H]1C(=O)N[C@H](CC(N)=O)C(=O)N[C@@H]2C(=O)N[C@H]3C(=O)N[C@H](C(=O)N[C@H](C(=O)O)c4cc(O)cc(O)c4-c4cc3ccc4O)[C@H](O)c3ccc(c(Cl)c3)Oc3cc2cc(c3O[C@H]2O[C@@H](CO)[C@@H](O)[C@@H](O)[C@@H]2O[C@@H]2C[C@](C)(N)[C@H](O)[C@H](C)O2)Oc2ccc(cc2Cl)[C@@H]1O has max response at or above 20%?
A) NO

Q) Dear colleague, could you confirm whether CN(C)C(=O)c1ccc(-c2cncnc2NCc2cccs2)cc1 has max response at or above 20%?
A) YES
